Experiment: Toxicity in human erythrocytes assessed as hemolytic activity
Assay type: cell-based, Erythrocyte
Details: read-out: HD50 (the source's name)
Checkbox rule: HC50 lower than 200 µg/mL = rule met; HC50 not lower than 200 µg/mL = rule not met.

See these solved cases before continuing.
MOLECULE	LABEL_CLASS
CC(C)(C)c1cc(C(C)(C)C)c2[nH]c(C(C)(C)C)c(C[C@H](NC(=O)[C@H](N)CCCNC(=N)N)C(=O)N[C@@H](CCCNC(=N)N)C(=O)NCCc3ccccc3)c2c1	rule met
CC(C)(C)c1cc(C(C)(C)C)c2[nH]c(C(C)(C)C)c(C[C@@H](NC(=O)[C@H](N)CCCNC(=N)N)C(=O)N[C@@H](CCCNC(=N)N)C(=O)NCCc3ccccc3)c2c1	rule not met

[in] Identify whether the molecule "CC(C)(C)c1cc(C(C)(C)C)c2[nH]c(C(C)(C)C)c(C[C@@H](NC(=O)[C@H](N)CCCNC(=N)N)C(=O)N[C@H](CCCNC(=N)N)C(=O)NCCc3ccccc3)c2c1" records HC50 below 200 µg/mL.
[out] rule met

[in] Input "CC(C)(C)c1cc(C(C)(C)C)c2[nH]c(C(C)(C)C)c(C[C@H](NC(=O)[C@@H](N)CCCNC(=N)N)C(=O)N[C@H](CCCNC(=N)N)C(=O)NCCc3ccccc3)c2c1"
[out] rule not met

[in] Input CC(C)(C)c1cc(C(C)(C)C)c2[nH]c(C(C)(C)C)c(C[C@H](NC(=O)[C@@H](N)CCCNC(=N)N)C(=O)N[C@@H](CCCNC(=N)N)C(=O)NCCc3ccccc3)c2c1 [LTX-109]
[out] rule met

[in] Input "CC(C)(C)c1cc(C(C)(C)C)c2[nH]c(C(C)(C)C)c(C[C@@H](NC(=O)[C@@H](N)CCCNC(=N)N)C(=O)N[C@@H](CCCNC(=N)N)C(=O)NCCc3ccccc3)c2c1"
[out] rule not met

[in] Input "CC(C)(C)c1cc(C(C)(C)C)c2[nH]c(C(C)(C)C)c(C[C@H](NC(=O)[C@H](N)CCCNC(=N)N)C(=O)N[C@H](CCCNC(=N)N)C(=O)NCCc3ccccc3)c2c1"
[out] rule not met

[in] Input "CC(C)(C)c1cc(C(C)(C)C)c2[nH]c(C(C)(C)C)c(C[C@@H](NC(=O)[C@@H](N)CCCNC(=N)N)C(=O)N[C@H](CCCNC(=N)N)C(=O)NCCc3ccccc3)c2c1"
[out] rule met

----------
Tested on: Pseudomonas aeruginosa
Assay: Antibacterial activity against Pseudomonas aeruginosa ATCC 27853
Type: functional
I'd appreciate it if you could supply MIC values for the items below.
One number for each entry, in µg/mL.

> print(dat)
                               input.smiles  measured.attribute  unit.abbreviation  measured.number
1  CC(C)(C)c1cc(C(C)(C)C)c2[nH]c(C(C)(C)C)c(C[C@H](NC(=O)[C@@H](N)CCCNC(=N)N)C(=O)N[C@H](CCCNC(=N)N)C(=O)NCCc3ccccc3)c2c1                 MIC              µg/mL               50

Need MIC for each of these molecules.
1. CC(C)(C)c1cc(C(C)(C)C)c2[nH]c(C(C)(C)C)c(C[C@H](NC(=O)[C@@H](N)CCCNC(=N)N)C(=O)N[C@@H](CCCNC(=N)N)C(=O)NCCc3ccccc3)c2c1
2. CC(C)(C)c1cc(C(C)(C)C)c2[nH]c(C(C)(C)C)c(C[C@@H](NC(=O)[C@@H](N)CCCNC(=N)N)C(=O)N[C@H](CCCNC(=N)N)C(=O)NCCc3ccccc3)c2c1
3. CC(C)(C)c1cc(C(C)(C)C)c2[nH]c(C(C)(C)C)c(C[C@H](NC(=O)[C@H](N)CCCNC(=N)N)C(=O)N[C@@H](CCCNC(=N)N)C(=O)NCCc3ccccc3)c2c1

[out]
8
8
10

----------
I'd appreciate it if you could supply MIC values for the items below.
Tested on: Pseudomonas aeruginosa
Assay: Antibacterial activity against Pseudomonas aeruginosa ATCC 27853
Type: functional

Solved cases below.
> print(dat)
                               input.smiles    result
1  CC(C)(C)c1cc(C(C)(C)C)c2[nH]c(C(C)(C)C)c(C[C@@H](NC(=O)[C@H](N)CCCNC(=N)N)C(=O)N[C@@H](CCCNC(=N)N)C(=O)NCCc3ccccc3)c2c1  50 µg/mL
2  CC(C)(C)c1cc(C(C)(C)C)c2[nH]c(C(C)(C)C)c(C[C@@H](NC(=O)[C@@H](N)CCCNC(=N)N)C(=O)N[C@@H](CCCNC(=N)N)C(=O)NCCc3ccccc3)c2c1  30 µg/mL
3  CC(C)(C)c1cc(C(C)(C)C)c2[nH]c(C(C)(C)C)c(C[C@H](NC(=O)[C@H](N)CCCNC(=N)N)C(=O)N[C@H](CCCNC(=N)N)C(=O)NCCc3ccccc3)c2c1  50 µg/mL

[in] For "CC(C)(C)c1cc(C(C)(C)C)c2[nH]c(C(C)(C)C)c(C[C@@H](NC(=O)[C@H](N)CCCNC(=N)N)C(=O)N[C@H](CCCNC(=N)N)C(=O)NCCc3ccccc3)c2c1" , what is its reported MIC?
[out] 8 µg/mL

Data provenance is ChEMBL document CHEMBL1817663.
